Test system: Brain
Assay: Drug level in Sprague-Dawley rat brain at 10 mg/kg
Assay type: ADME, organism-based
Set-up: dose 10 mg/kg
Settings: in vivo
quantity kind: Drug uptake

Looking for the measured Drug uptake of COc1ccc(C2C(C#N)=C(N)OC3=C2C(=O)CC(c2cccc4ccccc24)C3)cc1 (stereo unspecified) , can you help?
< 10 ng/g

###

Molecular target: Excitatory amino acid transporter 1 (Homo sapiens)
Sequence (P43003 whole entry): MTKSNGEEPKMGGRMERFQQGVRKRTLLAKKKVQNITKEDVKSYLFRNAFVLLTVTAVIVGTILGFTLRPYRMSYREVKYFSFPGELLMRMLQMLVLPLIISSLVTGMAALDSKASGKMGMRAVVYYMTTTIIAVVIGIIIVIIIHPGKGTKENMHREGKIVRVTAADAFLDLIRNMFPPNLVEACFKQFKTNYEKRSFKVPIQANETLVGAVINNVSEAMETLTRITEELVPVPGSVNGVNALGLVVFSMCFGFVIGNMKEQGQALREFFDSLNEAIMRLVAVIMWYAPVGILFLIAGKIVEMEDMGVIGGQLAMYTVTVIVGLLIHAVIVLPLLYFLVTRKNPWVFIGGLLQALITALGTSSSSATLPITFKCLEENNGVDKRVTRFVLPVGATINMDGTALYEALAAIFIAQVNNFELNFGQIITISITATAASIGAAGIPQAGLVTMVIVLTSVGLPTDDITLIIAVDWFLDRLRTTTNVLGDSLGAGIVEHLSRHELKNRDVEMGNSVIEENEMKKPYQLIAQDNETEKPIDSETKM
Experiment: Inhibition of human EAAT1 expressed in HEK293 cells by [3H]D-Asp uptake assay
Format: cell-based
Details: read-out: IC50
pIC50: −log10 of the molar value.
Item-by-item account of pIC50

Study these solved cases before continuing.
compound="N#CC1=COC2=C(C(=O)CC(c3ccccc3)C2)C1c1ccccc1 (stereo unspecified)" quantity_kind=pIC50 obs_value="< 4.00"
compound="N#CC1=C(N)OC2=C(C(=O)O[C@H](c3ccccc3)C2)[C@@H]1c1ccccc1 (relative stereo)" quantity_kind=pIC50 obs_value="< 3.52"
compound="NC(=O)C1=C(N)OC2=C(C(=O)CC(c3ccccc3)C2)C1c1ccccc1 (stereo unspecified)" quantity_kind=pIC50 obs_value="< 4.00"

Looking for the measured pIC50 of N#CC1=C(N)OC2=C(C(=O)N[C@H](c3ccccc3)C2)[C@@H]1c1ccccc1 (relative stereo) , can you help?
< 3.52

Looking for the measured pIC50 of CC(=O)NC1=C(C#N)C(c2ccccc2)C2=C(CC(c3ccccc3)CC2=O)O1 (stereo unspecified) , can you help?
< 4.00

Looking for the measured pIC50 of CC1C(C#N)=C(N)OC2=C1C(=O)CC(c1cccc3ccccc13)C2 (stereo unspecified) , can you help?
6.37

Reference source: ChEMBL document CHEMBL1255223
